Tested on: SK-MEL-2 melanoma
Experiment: NCI-60 one-dose screen, 48 h (100 = growth as untreated, 0 = no growth, -100 = all killed)
Settings: 10 µM unless noted
The panel holds about 83,000 compounds, 20% with a hit somewhere; the sample as a whole holds those more often.
Kindly supply the reported growth values for the records listed here.
Your answer should be a plain number; it is taken to be in %.

Exercise: Report measured growth; entry is CN(C)c1ccc(/C=C/C(=O)c2ccccc2)cc1
Solution: 93.5

Exercise: Report measured growth; entry is COc1cc(/C=N/Nc2ccccc2F)cc(OC)c1OC
Solution: 90.2

Exercise: Report measured growth; entry is Oc1c(CN2CCCC2)cc(COCc2ccccc2)c2cccnc12
Solution: 19.2

Exercise: Report measured growth; entry is N#Cc1c(N2CCOCC2)nc(=S)[nH]c1-c1ccccc1
Solution: 41.8

Exercise: Report measured growth; entry is S=c1ssnc1-c1cccs1
Solution: 103

Exercise: Report measured growth; entry is Cc1nc2ccccc2c(/C=C/c2ccc(C(F)(F)F)cc2)c1C(=O)/C=C/c1ccccc1
Solution: -43.6

Ref: PubChem BioAssay (NCI)
